Test system: TNF-α
Experimental Protocol: Determination of TNF-α inhibition rate (LPS-induced inflammation in mice, serum TNF-α)
Type: in vivo
Condition Info: Mus musculus, 1 h, oral 100 mg/kg in 0.5% methyl cellulose, LPS 0.4 mg/kg i.p. one hour later, serum TNF-α one hour after LPS
Recorded inhibition in vivo at 100 mg/kg for the following compounds
Assay Endpoint: inhibition in vivo at 100 mg/kg (%)

1) COC1=CC(=O)C[C@@H](C)[C@]12Oc1c(Cl)c(OCCO)cc(OC)c1C2=O [Example 1]    62
2) COC1=CC(=O)C[C@@H](C)[C@]12Oc1c(Cl)c(OC)cc(OC)c1C2=O [Griseofulvin]    19
3) COC1=CC(=O)C[C@@H](C)[C@]12Oc1c(Cl)c(-c3nc(C(C)O)no3)cc(OC)c1C2=O (some centres unmarked) [Example 13]    82
4) COC1=CC(=O)C[C@@H](C)[C@]12Oc1c(Cl)c(-c3nnc([C@H](C)O)o3)cc(OC)c1C2=O [Example 9]    65
5) COC1=CC(=O)C[C@@H](C)[C@]12Oc1c(Cl)c(-c3noc(C)n3)cc(OC)c1C2=O [Example 7]    65
6) COC1=CC(=O)C[C@@H](C)[C@]12Oc1c(Cl)c(-c3nc(C)no3)cc(OC)c1C2=O [Example 6]    55
7) CCOc1cc(-c2nnc([C@H](C)O)o2)c(Cl)c2c1C(=O)[C@@]1(O2)C(OC)=CC(=O)C[C@H]1C [Example 12]    61
8) COC1=CC(=O)C[C@@H](C)[C@]12Oc1c(Cl)c(-c3nc(C)no3)cc(OCCO)c1C2=O [Example 15]    55
9) COC1=CC(=O)C[C@@H](C)[C@]12Oc1c(Cl)c(-c3ccn(C)n3)cc(OC)c1C2=O [Example 3]    65
10) COC1=CC(=O)C[C@@H](C)[C@]12Oc1c(Cl)c(-c3nnc([C@@H](C)O)o3)cc(OC)c1C2=O [Example 10]    58
11) COC1=CC(=O)C[C@@H](C)[C@]12Oc1c(Cl)c(-c3nnc(C)o3)cc(OCCO)c1C2=O [Example 14]    24
12) CCn1ccc(-c2cc(OC)c3c(c2Cl)O[C@]2(C3=O)C(OC)=CC(=O)C[C@H]2C)n1 [Example 4]    73
13) COCCOc1cc(OC)c2c(c1Cl)O[C@]1(C2=O)C(OC)=CC(=O)C[C@H]1C [Example 2]    71
14) CCOc1cc(-c2nnc(C(C)(C)O)o2)c(Cl)c2c1C(=O)[C@@]1(O2)C(OC)=CC(=O)C[C@H]1C [Example 11]    61
15) COC1=CC(=O)C[C@@H](C)[C@]12Oc1c(Cl)c(-c3noc(C)n3)cc(OCCO)c1C2=O [Example 16]    62
16) COC1=CC(=O)C[C@@H](C)[C@]12Oc1c(Cl)c(-c3nnc(C)o3)cc(OC)c1C2=O [Example 5]    70
17) COC1=CC(=O)C[C@@H](C)[C@]12Oc1c(Cl)c(-c3nnc(C(C)(C)O)o3)cc(OC)c1C2=O [Example 8]    38
